Reference for the values: patent US20240174690A1

# assay protocol: Metabolic (microsomal) stability assay, human liver microsomes (HLM)
# Format: in vitro ADME
# condition label: predicted clearance as percent of liver blood flow, 1 μM
Entries annotated with measured HLM QH

• C[C@H](Oc1cc(N2CCN3CCC3C2)nc(-c2onc3c2CCC[C@@]32CCCc3sc(N)c(C#N)c32)n1)[C@@H]1CCCN1C (stereo partly drawn) [I-9] = <24%
• C[C@H](Oc1cc(-c2ccn(C)n2)nc(-c2noc3c2CCC[C@@]32CCCc3sc(N)c(C#N)c32)n1)[C@@H]1CCCN1C [II-96] = <24%
• C[C@H](Oc1cc(-c2ccc(N)nc2)nc(-c2onc3c2CCC[C@@]32CCCc3sc(N)c(C#N)c32)n1)[C@@H]1CCCN1C [I-25] = <24%
• C[C@H](Oc1cc(-c2ccn(C[C@@H](C)O)n2)nc(-c2noc3c2CCC[C@@]32CCCc3sc(N)c(C#N)c32)n1)[C@@H]1CCCN1C [II-117] = <24%
• C[C@H](Oc1cc(-n2cc3c(n2)CN(C)C3)nc(-c2noc3c2CCC[C@@]32CCCc3sc(N)c(C#N)c32)n1)[C@@H]1CCCN1C [II-174] = 39%

// below: HLM QH requested for another compound
Exam item: Quick one: HLM QH for C[C@H](Oc1cc(-c2ccn(Cc3ncco3)n2)nc(-c2noc3c2CCC[C@@]32CCCc3sc(N)c(C#N)c32)n1)[C@@H]1CCCN1C [II-128] ?
Marked response: <24%

---

# assay protocol: Solubility measurement (DMSO solution method), McIlvaine buffer pH 4.5 or 6.8
# Format: physicochemical
# condition label: aqueous buffer, kinetic from dmso stock; McIlvaine buffer pH 6.8; DMSO stock diluted to 250 μM; 24 h shaking at ambient temperature; read-out: solubility pH 6.8
value type: solubility at 24 h

// solved cases for solubility at 24 h follow
• C[C@H]1CN(C)CCCN1c1cc(N2CCN(C)CC2)nc(-c2noc3c2CCC[C@@]32CCCc3sc(N)c(C#N)c32)n1 = > 125 µg/mL
• C[C@H](Oc1nc(-c2noc3c2CCC[C@@]32CCCc3sc(N)c(C#N)c32)nc(N2C[C@H](C)NC3(CC3)C2)c1F)[C@@H]1C[C@@H](F)CN1C = < 1 µg/mL
• C[C@H](Oc1cc(N2CCN(C)C3(CC3)C2)nc(-c2onc3c2CCC[C@@]32CCCc3sc(N)c(C#N)c32)n1)[C@@H]1C[C@@H](F)CN1C = < 1 µg/mL
• C[C@H](Oc1cc(N2C[C@H](C)N[C@@H](C)C2)nc(-c2onc3c2CCC[C@@]32CCCc3sc(N)c(C#N)c32)n1)[C@@H]1CCCN1C = > 144 µg/mL
• C[C@H](Oc1cc(N2C[C@H](C)N(C)[C@@H](C)C2)nc(-c2onc3c2CCC[C@@]32CCCc3sc(N)c(C#N)c32)n1)[C@@H]1CCCN1C = > 306 µg/mL

// below: solubility at 24 h requested for another molecule
Exam item: Quick one: solubility at 24 h for Cc1nc(-c2cc(O[C@@H](C)[C@@H]3CCCN3C)nc(-c3noc4c3CCC[C@@]43CCCc4sc(N)c(C#N)c43)n2)cs1 ?
Marked response: < 1 µg/mL

---

# assay protocol: Metabolic (microsomal) stability assay, human liver microsomes (HLM)
# Format: in vitro ADME
# condition label: predicted clearance as percent of liver blood flow, 1 μM
value type: HLM QH

// solved cases for HLM QH follow
- CN[C@H]1CCN(c2cc(O[C@@H](C)[C@@H]3CCCN3C)nc(-c3noc4c3CCC[C@@]43CCCc4sc(N)c(C#N)c43)n2)C1: <24%
- C[C@H](Oc1cc(-c2ccn(C3COC3)n2)nc(-c2onc3c2CCC[C@@]32CCCc3sc(N)c(C#N)c32)n1)[C@@H]1CCCN1C: <24%

Exam item: Quick one: HLM QH for C[C@H](Oc1cc(-n2ccc(-c3cn([C@H]4CCOC4)nn3)n2)nc(-c2noc3c2CCC[C@@]32CCCc3sc(N)c(C#N)c32)n1)[C@@H]1CCCN1C ?
Marked response: <24%

---

Entries annotated with measured pIC50
# System: SAS cells
# assay protocol: SAS CTG proliferation assay (120 h) (HNSCC, wt amplified)
# Type: cell-based
# Procedure: SAS CTG Proliferation Assay (120 h) (HNSCC, Wt Amplified) SAS cells (JCRB0260) are dispensed into 384-well plates, flat and clear bottom (Greiner, PNr. 781091) at a density of 300 cells per well in 60 μL DMEM:F12 (Gibco 31330-038)+10% Fetal Calf Serum (HyClone, PNr.: SH30084.03) and incubated at 37° C. in a CO2 incubator overnight. […] Plates are incubated for 120 h, and cell viability is measured using CellTiter-Glo luminescent cell viability reagent (Promega product code G7570). […]
In plain terms, pIC50 is the concentration in mol/L turned into minus its base-10 logarithm.

* C[C@H](Oc1cc(-n2ccsc2=O)nc(-c2noc3c2CCC[C@@]32CCCc3sc(N)c(C#N)c32)n1)[C@@H]1CCCN1C | 7.16
* C[C@H](Oc1cc(-c2cccc(CO)c2)nc(-c2noc3c2CCC[C@@]32CCCc3sc(N)c(C#N)c32)n1)[C@@H]1CCCN1C | 6.19
* C[C@H](Oc1cc(-n2cc3c(n2)CN(C)C3)nc(-c2noc3c2CCC[C@@]32CCCc3sc(N)c(C#N)c32)n1)[C@@H]1CCCN1C | 6.61
* C[C@H](Oc1cc(N2CCOC3(CC3)C2)nc(-c2noc3c2CCC[C@@]32CCCc3sc(N)c(C#N)c32)n1)[C@@H]1CCCN1C | 6.77
* C[C@H](Oc1cc(-n2cc3c(n2)CNC3)nc(-c2noc3c2CCC[C@@]32CCCc3sc(N)c(C#N)c32)n1)[C@@H]1C[C@@H](F)CN1C | 6.13

Exam item: Quick one: pIC50 for C[C@H](Oc1cc(N2CCNCC2)nc(-c2noc3c2CCC[C@@]32CCCc3sc(N)c(C#N)c32)n1)[C@@H]1CCCN1C ?
Marked response: 6.28

Exam item: Quick one: pIC50 for C[C@H](Oc1cc(-c2cnn(C)n2)nc(-c2noc3c2CCC[C@@]32CCCc3sc(N)c(C#N)c32)n1)[C@@H]1C[C@@H](F)CN1C ?
Marked response: 6.69

Exam item: Quick one: pIC50 for C[C@H](Oc1cc(N2CCN(C)C3(COC3)C2)nc(-c2onc3c2CCC[C@@]32CCCc3sc(N)c(C#N)c32)n1)[C@@H]1C[C@@H](F)CN1C ?
Marked response: 6.39

Exam item: Quick one: pIC50 for CO[C@@H]1C[C@@H]([C@H](C)Oc2cc(-c3ccn(C4COC4)n3)nc(-c3noc4c3CCC[C@@]43CCCc4sc(N)c(C#N)c43)n2)N(C)C1 ?
Marked response: 8.15

Exam item: Quick one: pIC50 for C[C@H](Oc1cc(N2CCN(C)C3(CC3)C2)nc(-c2onc3c2CCC[C@@]32CCCc3sc(N)c(C#N)c32)n1)[C@@H]1CCCN1C ?
Marked response: 5.38

Exam item: Quick one: pIC50 for CC(C)NC(=O)Cc1ccn(-c2cc(O[C@@H](C)[C@@H]3CCCN3C)nc(-c3noc4c3CCC[C@@]43CCCc4sc(N)c(C#N)c43)n2)n1 ?
Marked response: 7.49

Exam item: Quick one: pIC50 for C[C@H](Oc1cc(N2C[C@H](C)N[C@@H](C)C2)nc(-c2noc3c2CCC[C@@]32CCCc3sc(N)c(C#N)c32)n1)[C@@H]1CCCN1C ?
Marked response: 5.85

Exam item: Quick one: pIC50 for CO[C@H]1CCN(C)[C@@H]1[C@H](C)Oc1cc(-n2ccc(C(=O)N[C@@H](C)c3ccccn3)n2)nc(-c2noc3c2CCC[C@@]32CCCc3sc(N)c(C#N)c32)n1 ?
Marked response: 8.05

Exam item: Quick one: pIC50 for C[C@H](Oc1cc(-c2ccn(-c3ccccc3)n2)nc(-c2noc3c2CCC[C@@]32CCCc3sc(N)c(C#N)c32)n1)[C@@H]1CCCN1C ?
Marked response: 6.61

Exam item: Quick one: pIC50 for C[C@H](Oc1cc(N2Cc3cnn(C)c3C2)nc(-c2noc3c2CCC[C@@]32CCCc3sc(N)c(C#N)c32)n1)[C@@H]1CCCN1C ?
Marked response: 5.88

Exam item: Quick one: pIC50 for C[C@H](Oc1cc(N2CCOC3(COC3)C2)nc(-c2noc3c2CCC[C@@]32CCCc3sc(N)c(C#N)c32)n1)[C@@H]1CCCN1C ?
Marked response: 6.82

Exam item: Quick one: pIC50 for CO[C@H]1CCN(C)[C@@H]1[C@H](C)Oc1cc(N2CCNC3(CC3)C2)nc(-c2noc3c2CCC[C@@]32CCCc3sc(N)c(C#N)c32)n1 ?
Marked response: 6.05

Exam item: Quick one: pIC50 for C[C@H](Oc1cc(N2CCC(N(C)C)CC2)nc(-c2noc3c2CCC[C@@]32CCCc3sc(N)c(C#N)c32)n1)[C@@H]1CCCN1C ?
Marked response: 5.41

Exam item: Quick one: pIC50 for C[C@H](Oc1cc(-n2cc3ccn([C@H]4CCOC4)c(=O)c3n2)nc(-c2noc3c2CCC[C@@]32CCCc3sc(N)c(C#N)c32)n1)[C@@H]1CCCN1C ?
Marked response: 7.68
